Data origin, for the record: patent US10280150B2

# TARGET UNDER TEST: IDH1-R132H recombinant protein (Homo sapiens (Human), UniProt O75874, R132H)
# Sequence (O75874 whole entry R132H): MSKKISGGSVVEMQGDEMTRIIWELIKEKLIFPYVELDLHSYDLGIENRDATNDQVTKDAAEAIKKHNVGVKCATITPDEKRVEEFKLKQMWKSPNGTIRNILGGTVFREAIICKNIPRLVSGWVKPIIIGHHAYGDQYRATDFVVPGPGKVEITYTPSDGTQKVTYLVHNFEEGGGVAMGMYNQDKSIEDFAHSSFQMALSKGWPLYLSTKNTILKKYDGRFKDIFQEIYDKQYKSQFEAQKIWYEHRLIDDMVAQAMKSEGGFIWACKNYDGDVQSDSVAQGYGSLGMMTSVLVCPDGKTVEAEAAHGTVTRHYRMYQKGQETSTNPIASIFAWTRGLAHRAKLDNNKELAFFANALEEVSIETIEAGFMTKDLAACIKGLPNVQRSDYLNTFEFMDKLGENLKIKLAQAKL
# EXPERIMENT: IDH1-R132H enzymatic assay (inhibition of NADPH consumption, diaphorase/resazurin readout)
# EXPERIMENTAL PARAMETERS: read-out: Enzyme IDH1 R132H IC50 (Range)
Field: IC50. Provide a value for each of the compounds that follow.

The value of IC50 measured for the compound CC(C)N(c1ccnc(N[C@@H](C)c2cc3cc(Cl)ccc3[nH]c2=O)n1)S(=O)(=O)c1cccnc1 [Compound I-4] turned out to be < 100 nM

The value of IC50 measured for the compound Cc1nccn1-c1ccnc(N[C@@H](C)c2cc3cc(Cl)ccc3[nH]c2=O)n1 [Compound I-56] turned out to be 1000 to 10000 nM

The value of IC50 measured for the compound COc1ccncc1-c1ccnc(N[C@@H](C)c2cc3cc(Cl)ccc3[nH]c2=O)n1 [Compound I-99] turned out to be 100 to 1000 nM

The value of IC50 measured for the compound Cc1n[nH]c(C)c1-c1ccnc(N[C@@H](C)c2cc3cc(Cl)ccc3[nH]c2=O)n1 [Compound I-82] turned out to be 1000 to 10000 nM

The value of IC50 measured for the compound C[C@H](Nc1nccc(-c2cncc3ccccc23)n1)c1cc2cc(Cl)ccc2[nH]c1=O [Compound I-92] turned out to be 100 to 1000 nM

The value of IC50 measured for the compound CC(=O)Nc1ccccc1-c1ccnc(N[C@@H](C)c2cc3cc(Cl)ccc3[nH]c2=O)n1 [Compound I-73] turned out to be 1000 to 10000 nM

The value of IC50 measured for the compound COC(=O)c1ccnc(N[C@@H](C)c2cc3cc(Cl)ccc3[nH]c2=O)n1 [Compound I-129] turned out to be 100 to 1000 nM

The value of IC50 measured for the compound COC(=O)Nc1ccnc(N[C@@H](C)c2cc3cc(Cl)c(OCc4ccccn4)cc3[nH]c2=O)n1 [Compound I-154] turned out to be < 100 nM

The value of IC50 measured for the compound C[C@H](Nc1nccc(-c2ccccc2)n1)c1cc2cc(Cl)ccc2[nH]c1=O [Compound I-101] turned out to be < 100 nM

The value of IC50 measured for the compound Cc1cscc1-c1ccnc(N[C@@H](C)c2cc3cc(Cl)ccc3[nH]c2=O)n1 [Compound I-80] turned out to be < 100 nM

The value of IC50 measured for the compound COc1nc(NC(C)c2cc3cc(Cl)c(OCc4ccccn4)cc3[nH]c2=O)ncc1C#N (stereo not shown) [Compound I-150] turned out to be < 100 nM

The value of IC50 measured for the compound CC(C)CS(=O)(=O)Nc1ccnc(N[C@@H](C)c2cc3cc(Cl)ccc3[nH]c2=O)n1 [Compound I-18] turned out to be 1000 to 10000 nM

The value of IC50 measured for the compound C[C@H](Nc1nccc(N)n1)c1cc2cc(Cl)ccc2[nH]c1=O [Compound I-139] turned out to be 1000 to 10000 nM

The value of IC50 measured for the compound CC(Nc1nccc(N2CCOC2=O)n1)c1cc2ccccc2[nH]c1=O (stereo not shown) [Compound I-49] turned out to be 100 to 1000 nM

The value of IC50 measured for the compound C[C@H](Nc1nccc(-n2cccc2)n1)c1cc2cc(Cl)ccc2[nH]c1=O [Compound I-52] turned out to be 100 to 1000 nM

The value of IC50 measured for the compound C[C@H](Nc1nccc(-c2cnc3ccccn23)n1)c1cc2cc(Cl)ccc2[nH]c1=O [Compound I-63] turned out to be < 100 nM

---

Field: IC50. Provide a value for each of the compounds that follow.
# TARGET UNDER TEST: IDH1-R132H recombinant protein (Homo sapiens (Human), UniProt O75874, R132H)
# EXPERIMENT: IDH1-R132H enzymatic assay (inhibition of NADPH consumption, diaphorase/resazurin readout)
# EXPERIMENTAL PARAMETERS: read-out: Enzyme IDH1 R132H IC50 (Range)
# Protocol: Assays were performed in a 384-well black plate. […] The plate was maintained at 25° C. for 15 minutes and then read on a plate reader with excitation and emission wavelengths at 535 nm and 590 nm, respectively. The IC50 of a given compound was calculated by fitting the dose response curve of inhibition of NADPH consumption at a given concentration with the four parameter logistic equation.

The value of IC50 measured for the compound COc1nc(N[C@@H](C)c2cc3cc(Cl)c(C4CC4)cc3[nH]c2=O)ncc1C#N turned out to be < 0.1 µM

The value of IC50 measured for the compound CC(C)n1cncc1-c1ccnc(N[C@@H](C)c2cc3cc(Cl)ccc3[nH]c2=O)n1 turned out to be < 0.1 µM

The value of IC50 measured for the compound CC(C)N(c1ccnc(NCc2cc3ccc(F)cc3[nH]c2=O)n1)S(C)(=O)=O turned out to be 1 to 10 µM

The value of IC50 measured for the compound CC(C)N(c1ccnc(NCc2cc3ccccc3[nH]c2=O)n1)S(C)(=O)=O turned out to be > 10 µM

---

# TARGET UNDER TEST: IDH1-R132C recombinant protein (Homo sapiens (Human), UniProt O75874, R132C)
# Sequence (O75874 whole entry R132C): as the sequence (O75874 whole entry R132H) above, with H132C counted along it
# EXPERIMENT: IDH1-R132C enzymatic assay (inhibition of NADPH consumption, diaphorase/resazurin readout)
# EXPERIMENTAL PARAMETERS: read-out: Enzyme IDH1 R132C IC50 (Range)
RESULT TYPE: IC50

Known value: IDH1-R132C recombinant protein (Homo sapiens (Human), UniProt O75874, R132C) IC50 of the compound CC(C)NC(=O)c1ccnc(N[C@@H](C)c2cc3cc(Cl)ccc3[nH]c2=O)n1 equals 1000 to 10000 nM

Known value: IDH1-R132C recombinant protein (Homo sapiens (Human), UniProt O75874, R132C) IC50 of the compound C[C@H](Nc1nccc(-c2ccncc2)n1)c1cc2cc(Cl)ccc2[nH]c1=O equals 100 to 1000 nM

Known value: IDH1-R132C recombinant protein (Homo sapiens (Human), UniProt O75874, R132C) IC50 of the compound CC(=O)Nc1ccnc(N[C@@H](C)c2cc3cc(Cl)cc(F)c3[nH]c2=O)n1 equals < 100 nM

Known value: IDH1-R132C recombinant protein (Homo sapiens (Human), UniProt O75874, R132C) IC50 of the compound C[C@H](Nc1nccc(N(C2CC2)S(C)(=O)=O)n1)c1cc2cc(Cl)ccc2[nH]c1=O equals 1000 to 10000 nM

Known value: IDH1-R132C recombinant protein (Homo sapiens (Human), UniProt O75874, R132C) IC50 of the compound CC(C)n1cncc1-c1ccnc(N[C@@H](C)c2cc3cc(Cl)ccc3n(C)c2=O)n1 equals < 100 nM

Known value: IDH1-R132C recombinant protein (Homo sapiens (Human), UniProt O75874, R132C) IC50 of the compound C[C@H](Nc1nccc(CS(C)(=O)=O)n1)c1cc2cc(Cl)ccc2[nH]c1=O equals 1000 to 10000 nM

Known value: IDH1-R132C recombinant protein (Homo sapiens (Human), UniProt O75874, R132C) IC50 of the compound COC(=O)Nc1ccnc(N[C@@H](C)c2cc3cc(Cl)c(OCc4ccccn4)cc3[nH]c2=O)n1 equals < 100 nM

Known value: IDH1-R132C recombinant protein (Homo sapiens (Human), UniProt O75874, R132C) IC50 of the compound C[C@H](Nc1nccc(N(CC2CC2)S(C)(=O)=O)n1)c1cc2cc(Cl)ccc2[nH]c1=O equals < 100 nM

Known value: IDH1-R132C recombinant protein (Homo sapiens (Human), UniProt O75874, R132C) IC50 of the compound C[C@H](Nc1nccc(-c2cnnn2C)n1)c1cc2cc(Cl)ccc2[nH]c1=O equals 1000 to 10000 nM

Known value: IDH1-R132C recombinant protein (Homo sapiens (Human), UniProt O75874, R132C) IC50 of the compound Cc1nc(N[C@@H](C)c2cc3cc(Cl)c(OCc4ccccn4)cc3[nH]c2=O)ncc1C#N equals < 100 nM

Known value: IDH1-R132C recombinant protein (Homo sapiens (Human), UniProt O75874, R132C) IC50 of the compound COc1nc(NC(C)c2cc3cc(Cl)c(OCc4ccccn4)cc3[nH]c2=O)ncc1C#N (stereo not drawn) equals < 100 nM

Known value: IDH1-R132C recombinant protein (Homo sapiens (Human), UniProt O75874, R132C) IC50 of the compound C[C@H](Nc1nccc(-c2cncn2CC(F)(F)F)n1)c1cc2cc(Cl)ccc2[nH]c1=O equals 100 to 1000 nM

Known value: IDH1-R132C recombinant protein (Homo sapiens (Human), UniProt O75874, R132C) IC50 of the compound COc1nc(N[C@H](C)c2cc3cc(Cl)ccc3[nH]c2=O)ncc1C#N equals 1000 to 10000 nM

Known value: IDH1-R132C recombinant protein (Homo sapiens (Human), UniProt O75874, R132C) IC50 of the compound C[C@H](Nc1nccc(-c2cnc3ccccn23)n1)c1cc2cc(Cl)ccc2[nH]c1=O equals < 100 nM

Known value: IDH1-R132C recombinant protein (Homo sapiens (Human), UniProt O75874, R132C) IC50 of the compound C[C@H](Nc1nccc([S+](C)[O-])n1)c1cc2cc(Cl)ccc2[nH]c1=O (stereo partly drawn) equals 100 to 1000 nM

Known value: IDH1-R132C recombinant protein (Homo sapiens (Human), UniProt O75874, R132C) IC50 of the compound Cc1ncccc1-c1ccnc(N[C@@H](C)c2cc3cc(Cl)ccc3[nH]c2=O)n1 equals 1000 to 10000 nM

Known value: IDH1-R132C recombinant protein (Homo sapiens (Human), UniProt O75874, R132C) IC50 of the compound COc1nc(N[C@@H](C)c2cc3ncccc3[nH]c2=O)ncc1C#N equals > 10000 nM

Known value: IDH1-R132C recombinant protein (Homo sapiens (Human), UniProt O75874, R132C) IC50 of the compound CC(=O)Nc1ccnc(N[C@@H](C)c2cc3cc(Cl)ccc3[nH]c2=O)n1 equals < 100 nM

Known value: IDH1-R132C recombinant protein (Homo sapiens (Human), UniProt O75874, R132C) IC50 of the compound C[C@H](Nc1nccc(-c2cncc3ccccc23)n1)c1cc2cc(Cl)ccc2[nH]c1=O equals 100 to 1000 nM

Known value: IDH1-R132C recombinant protein (Homo sapiens (Human), UniProt O75874, R132C) IC50 of the compound C[C@H](Nc1nccc(-c2cccc3c2OCC3)n1)c1cc2cc(Cl)ccc2[nH]c1=O equals > 10000 nM

Known value: IDH1-R132C recombinant protein (Homo sapiens (Human), UniProt O75874, R132C) IC50 of the compound COc1nc(N[C@H](C)c2nc3cc(Cl)ccc3[nH]c2=O)ncc1C#N equals 1000 to 10000 nM

Known value: IDH1-R132C recombinant protein (Homo sapiens (Human), UniProt O75874, R132C) IC50 of the compound C[C@H](Nc1nccc(-c2cccnc2)n1)c1cc2cc(Cl)ccc2[nH]c1=O equals 100 to 1000 nM

Known value: IDH1-R132C recombinant protein (Homo sapiens (Human), UniProt O75874, R132C) IC50 of the compound CCC(=O)Nc1ccnc(N[C@@H](C)c2cc3cc(Cl)ccc3[nH]c2=O)n1 equals < 100 nM

Known value: IDH1-R132C recombinant protein (Homo sapiens (Human), UniProt O75874, R132C) IC50 of the compound C[C@H](Nc1nccc(-c2ccccc2)n1)c1cc2cc(Cl)ccc2[nH]c1=O equals 100 to 1000 nM

Known value: IDH1-R132C recombinant protein (Homo sapiens (Human), UniProt O75874, R132C) IC50 of the compound CC(=O)Nc1ccnc(NC(C)c2cc3cc(Cl)c(OCc4ccccn4)cc3[nH]c2=O)n1 (stereo not drawn) equals < 100 nM

Known value: IDH1-R132C recombinant protein (Homo sapiens (Human), UniProt O75874, R132C) IC50 of the compound CC(C)N(c1ccnc(N[C@@H](C)c2cc3cc(Cl)ccc3[nH]c2=O)n1)S(=O)(=O)CC1CC1 equals < 100 nM

Known value: IDH1-R132C recombinant protein (Homo sapiens (Human), UniProt O75874, R132C) IC50 of the compound COc1cc2[nH]c(=O)c(C(C)Nc3ncc(C#N)c(OC)n3)cc2cc1Cl (stereo not drawn) equals < 100 nM

Known value: IDH1-R132C recombinant protein (Homo sapiens (Human), UniProt O75874, R132C) IC50 of the compound COc1cc2[nH]c(=O)c([C@@H](C)Nc3ncc(C#N)c(OC)n3)cc2cc1Cl equals 1000 to 10000 nM

Known value: IDH1-R132C recombinant protein (Homo sapiens (Human), UniProt O75874, R132C) IC50 of the compound CC(C)CS(=O)(=O)Cc1ccnc(N[C@@H](C)c2cc3cc(Cl)ccc3[nH]c2=O)n1 equals 100 to 1000 nM

Known value: IDH1-R132C recombinant protein (Homo sapiens (Human), UniProt O75874, R132C) IC50 of the compound C[C@H](Nc1nccc(-c2cncn2C)n1)c1cc2cc(Cl)ccc2[nH]c1=O equals 100 to 1000 nM
